B1: INTS3 (parent)
chain: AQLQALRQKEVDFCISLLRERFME

Variants of: B1
Method Description: protein stability index of a GFP-peptide fusion (GPS, HEK-293T) (PSI 1-6); higher = more stable;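 further: lentivirally expressed fusions sorted by FACS into six bins by GFP to DsRed ratio, PSI derived from sequencing read proportions per bin multiplied by bin number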
Condition Set: c terminus: a fixed tail appended
protein stability index vs 2: at or above is yes, below is no.

> print(dat)
    mutation.annotation  class
 1                  R7H    yes
 2                 M23G     no
 3                 R19F     no
 4                  L6V    yes
 5                  K9C    yes
 6                 M23E     no
 7                 R19Y    yes
 8                 F13R     no
 9                 L17P    yes
10                 S16I    yes
11                 V11M    yes
12                 E20P    yes
13                 F13L     no
14                 S16L     no
15                 C14R    yes
16                  L6K    yes
17                 F13S    yes
18                 F13Y    yes
19                  Q8L     no
20                 R21N    yes
21                 D12G    yes
22                 F22P     no
23                 E10S    yes
24                 D12Y    yes
25                 S16Q    yes
26                 V11L    yes
27                  A5H    yes
28                 F22M    yes
29                  L3N     no
30                 E10A    yes
31                  Q2Y    yes
32                 F13M    yes
33                 L18C     no
34                  Q2P    yes
35                  L3I    yes
36                  Q4E    yes
37                 F22K     no
38                 R19E     no
39                  L6F    yes
40                  A5K     no
41                 V11Q     no
42                 R21F     no
43                  A1D    yes
44                  Q8V    yes
45                  L3R     no
46                 S16G    yes
47                 I15G    yes
48                 L18R    yes
49                 R21G    yes
50                 E24R    yes
51                  A5V     no
52                  K9W     no
53                 V11D    yes
54                 M23K    yes
55                  Q8G    yes
56                  A1W    yes
57                 E24I    yes
58                  Q2G    yes
59                  L3W    yes
60                  R7G    yes
61                  Q8P     no
62                  L3A    yes
63                 F13C    yes
64                  L3H     no
65                  Q8I    yes
66                  A5L    yes
67                 R21T    yes
68                 S16C    yes
69                  Q4S     no
70                  L3P     no
71                 I15Y    yes
72                 F22A     no
73                 F13A     no
74                 R19D     no
75                 F22Y    yes
76                  L3C     no
77                 E20I    yes
78                 F22D    yes
79                 M23N    yes
80                 R21L    yes
81                 L17T     no
82                  Q2R    yes
83                 E10P    yes
84                 L18Y    yes
